// each record: one item and its IC50 for UniProt Q9Y233

Please give the documented IC50 of Cc1ccnc(-c2cnn(C)c2C(=O)Nc2cc3nc(-c4ccccc4)nn3cc2F)n1
< 5 nM

Please give the documented IC50 of Cc1nccc(-c2cnn(C)c2C(=O)Nc2cc3nc(-c4ccccc4)nn3cc2F)n1
< 5 nM

Please give the documented IC50 of COc1ccnc(-c2cnn(C)c2C(=O)Nc2ccn3nc(N4CCCC4)nc3c2)c1
< 5 nM

Please give the documented IC50 of Cc1cc(C)nc(-c2cnn(C)c2C(=O)Nc2cc3nc(-c4ccccc4)nn3cc2F)n1
< 5 nM

Please give the documented IC50 of Cc1sc(-c2cnn(C)c2C(=O)Nc2ccn3cc(-c4ccccc4)nc3c2)nc1C(F)F
< 5 nM

Please give the documented IC50 of Cn1ncc(-c2cccnn2)c1C(=O)Nc1cc2nc(-c3ccccc3)nn2cc1F
< 5 nM

Please give the documented IC50 of Cc1cncnc1-c1cnn(C)c1C(=O)Nc1cc2nc(-c3ccccc3)nn2cc1F
< 5 nM

Please give the documented IC50 of Cn1cnc(-c2cnn(C)c2C(=O)Nc2cc3nc(-c4ccccc4)nn3cc2F)c1
< 5 nM

Please give the documented IC50 of Cc1ncc(C)c(-c2cnn(C)c2C(=O)Nc2cc3nc(-c4cccnc4)nn3cc2F)n1
< 5 nM

Please give the documented IC50 of COc1ccnc(-c2cnn(C)c2C(=O)Nc2cc3nc(-c4ccccc4)nn3cc2F)c1
< 5 nM

Please give the documented IC50 of Cc1cc(C)nc(-c2cnn(C)c2C(=O)Nc2cc3nc(N4CC[C@H](F)C4)nn3cc2F)c1
< 5 nM

Please give the documented IC50 of Cn1ncc(-c2cccc(C(F)(F)F)n2)c1C(=O)Nc1ccn2nc(N3CCCC3)nc2c1
< 5 nM

Please give the documented IC50 of Cc1cc(C)nc(-c2cnn(C)c2C(=O)Nc2cc3nc(-c4ccc(F)cc4)nn3cc2F)c1
< 5 nM

Please give the documented IC50 of Cn1ncc(-c2nc(C(F)(F)F)cs2)c1C(=O)Nc1ccn2nc(N3CC[C@@H](F)C3)nc2c1
< 5 nM

Please give the documented IC50 of Cn1ncc(-c2ncncc2Cl)c1C(=O)Nc1cc2nc(-c3ccccc3)nn2cc1F
< 5 nM

Please give the documented IC50 of Cn1ncc(-c2nc(C(F)F)cs2)c1C(=O)Nc1ccn2cc(-c3ccccc3)nc2c1
< 5 nM

----------
- system: human PDE10 (Homo sapiens (Human))
- Sequence (Q9Y233 whole entry): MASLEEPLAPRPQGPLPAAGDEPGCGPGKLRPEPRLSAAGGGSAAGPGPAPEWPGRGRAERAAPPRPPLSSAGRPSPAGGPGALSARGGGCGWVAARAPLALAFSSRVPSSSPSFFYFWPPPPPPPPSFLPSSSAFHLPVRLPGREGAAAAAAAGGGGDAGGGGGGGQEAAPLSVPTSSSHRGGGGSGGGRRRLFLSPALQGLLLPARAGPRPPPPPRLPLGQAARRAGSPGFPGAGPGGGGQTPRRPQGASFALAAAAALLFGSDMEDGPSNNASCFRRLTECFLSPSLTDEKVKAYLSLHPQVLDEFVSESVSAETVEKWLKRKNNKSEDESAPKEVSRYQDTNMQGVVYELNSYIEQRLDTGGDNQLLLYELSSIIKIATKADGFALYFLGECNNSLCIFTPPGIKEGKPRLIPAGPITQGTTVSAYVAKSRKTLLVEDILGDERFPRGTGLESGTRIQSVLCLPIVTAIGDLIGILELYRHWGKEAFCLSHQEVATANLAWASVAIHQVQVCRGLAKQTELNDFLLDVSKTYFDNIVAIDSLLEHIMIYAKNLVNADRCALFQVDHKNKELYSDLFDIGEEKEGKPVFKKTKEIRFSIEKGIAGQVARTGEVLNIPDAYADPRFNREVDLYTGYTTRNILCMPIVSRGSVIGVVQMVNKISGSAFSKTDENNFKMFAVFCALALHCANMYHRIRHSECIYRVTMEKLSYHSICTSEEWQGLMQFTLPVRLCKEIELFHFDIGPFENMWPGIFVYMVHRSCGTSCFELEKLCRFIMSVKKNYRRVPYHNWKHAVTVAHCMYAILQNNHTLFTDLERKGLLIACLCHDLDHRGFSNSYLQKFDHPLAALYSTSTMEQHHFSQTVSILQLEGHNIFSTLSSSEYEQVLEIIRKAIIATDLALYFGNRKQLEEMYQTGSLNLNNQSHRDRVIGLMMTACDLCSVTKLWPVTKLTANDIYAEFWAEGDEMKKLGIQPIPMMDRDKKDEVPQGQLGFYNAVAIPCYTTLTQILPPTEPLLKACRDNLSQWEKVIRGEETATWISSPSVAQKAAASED
- test-details: Evaluation of enzyme inhibitory activity: human PDE10 inhibitory effect (IMAP TR-FRET)
- Format: biochemical
- condition-summary: cAMP substrate
property-name: IC50

Please give the documented IC50 of COc1cccc(-c2cnn(C)c2C(=O)NC2CCn3cc(-c4ccccc4)nc3C2)n1 (centres unmarked)
< 5 nM

Please give the documented IC50 of Cc1cccc(-c2cnn(C)c2C(=O)Nc2ccn3nc(N4CCC[C@@H]4C)nc3c2)n1
< 5 nM

Please give the documented IC50 of Cn1ncc(-c2nc(C(F)F)cs2)c1C(=O)Nc1ccn2nc(N3CC[C@@H](F)C3)nc2c1
< 5 nM

Please give the documented IC50 of Cn1ncc(-c2nc(C(F)F)cs2)c1C(=O)NC1CCn2nc(-c3ccccc3)nc2C1 (centres unmarked)
< 5 nM

Please give the documented IC50 of Cc1ncnc(-c2cnn(C)c2C(=O)Nc2cc3nc(-c4ccccc4)nn3cc2F)c1C
< 5 nM

Please give the documented IC50 of Cc1ccc(-c2cnn(C)c2C(=O)Nc2cc3nc(-c4ccccc4)nn3cc2F)nn1
< 5 nM

Please give the documented IC50 of Cc1csc(-c2cnn(C)c2C(=O)Nc2ccn3cc(-c4ccccc4)nc3c2)n1
< 5 nM

Please give the documented IC50 of Cn1ncc(-c2nc(C(F)(F)F)cs2)c1C(=O)Nc1cc2nc(-c3ccccc3)nn2cc1F
< 5 nM
